Entries and their measured Ki follow.
test: Tested for the ability to inhibit dephosphorylation of [3H]Ins(1,4,5)P3 of human erythrocyte membrane Ins(1,4,5)P3 5- phosphatase; assay type: functional
QUANTITY_MEASURED: Ki (µM)

compound="O=P(O)(O)OC1C(O)C(O)C(OP(=O)(O)O)C(OP(O)(O)=S)C1O (stereo in doubt; 4)" quantity_measured=Ki observed_value=978
compound="OC1C(O)C(OP(O)(O)=S)C(OP(O)(O)=S)C(O)C1OP(O)(O)=S (stereo in doubt)" quantity_measured=Ki observed_value=1.7
compound="OC1C(O)C(OP(O)(O)=S)C(OP(O)(O)=S)C(O)C1OP(O)(O)=S (stereo in doubt; 8)" quantity_measured=Ki observed_value=0.3
compound="OC1C(O)C(OP(O)(O)=S)C(OP(O)(O)=S)C(O)C1OP(O)(O)=S (stereo in doubt; 2)" quantity_measured=Ki observed_value=350
compound="O=P(O)(O)OC1C(O)C(O)C(OP(=O)(O)O)C(OP(O)(O)=S)C1O (stereo in doubt)" quantity_measured=Ki observed_value=6.8
compound=O=P(O)(O)O[C@@H]1[C@H](O)[C@H](O)[C@@H](OP(=O)(O)O)[C@H](OP(=O)(O)O)[C@H]1O quantity_measured=Ki observed_value=44
